Target: 5-LOX (Homo sapiens, UniProt P09917)
Sequence (P09917 1-674): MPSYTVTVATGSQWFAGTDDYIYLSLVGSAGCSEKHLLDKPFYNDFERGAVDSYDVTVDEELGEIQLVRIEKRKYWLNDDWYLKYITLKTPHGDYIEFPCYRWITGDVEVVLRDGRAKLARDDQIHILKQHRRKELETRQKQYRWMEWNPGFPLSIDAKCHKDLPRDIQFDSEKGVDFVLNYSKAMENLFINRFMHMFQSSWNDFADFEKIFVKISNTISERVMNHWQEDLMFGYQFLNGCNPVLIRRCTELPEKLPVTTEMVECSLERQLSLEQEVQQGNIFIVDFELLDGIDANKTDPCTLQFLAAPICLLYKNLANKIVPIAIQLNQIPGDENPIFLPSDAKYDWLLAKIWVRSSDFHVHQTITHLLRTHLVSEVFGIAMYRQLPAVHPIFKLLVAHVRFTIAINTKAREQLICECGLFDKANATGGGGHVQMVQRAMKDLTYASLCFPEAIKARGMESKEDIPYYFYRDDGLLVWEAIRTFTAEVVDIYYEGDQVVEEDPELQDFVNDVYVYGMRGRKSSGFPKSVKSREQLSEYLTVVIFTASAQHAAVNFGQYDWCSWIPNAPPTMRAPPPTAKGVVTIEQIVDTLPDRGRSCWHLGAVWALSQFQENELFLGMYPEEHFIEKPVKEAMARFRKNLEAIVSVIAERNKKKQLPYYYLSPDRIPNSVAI
Experiment: 5-LOX product formation in activated PMNL
Settings: PMNL, read-out: 5-LOX PMNL residual activity at 3 μM
Each item that follows carries a reported remaining activity at 3 µM.
Output should be the measured figure followed by the unit it is expressed in.

- compound: "C/C(=C\\CC/C(C)=C/CC[C@]1(C)CCc2c(CN3CCN(C)CC3)c(O)c(CN3CCN(C)CC3)c(C)c2O1)CCC=C(CO)CO"
  reported.value: "77.8%"
- compound: "C/C(=C\\CC[C@]1(C)CCc2cc(O)cc(C)c2O1)CCC=C(CO)CO"
  reported.value: "36.3%"
- compound: "COc1ccc(C2OCC(=CCC/C(C)=C/CC/C(C)=C/CC[C@]3(C)CCc4c(C)c(O)c(CO)c(C)c4O3)CO2)cc1OC (some centres unmarked)"
  reported.value: "22.2%"
- compound: "C/C(=C\\CC/C(C)=C/CC[C@]1(C)CCc2c(CN3CCOCC3)c(O)cc(C)c2O1)CCC=C(CO)CO"
  reported.value: "11.3%"

# context switch: different compound, same remaining activity at 3 µM
Problem: Name the recorded remaining activity at 3 µM for C/C(=C\CC/C(C)=C/CC[C@]1(C)CCc2cc(O)c(C)c(C)c2O1)CCC=C(CO)CO [Compound 27c] .
Solution: 0.8%

* * *

Each entry below carries its reported pIC50.
Target: UniProtKB P09917
Experiment: 5-LOX product formation in activated PMNL;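 further: freshly isolated human PMNL in PBS pH 7.4 plus glucose, preincubated 10 min at 37 °C with compound, 5-LOX products (all-trans LTB4 isomers, 5-HETE) quantified by RP-HPLC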
Details: read-out: 5-LOX PMNL IC50; 5-LOX product formation in activated PMNL; mean ± SEM
Answer as the number alone; pIC50 is minus log10 of concentration in mol/L.

- compound: "C/C(=C\\CC/C(C)=C/CC[C@]1(C)CCc2c(CN3CCCCC3)c(O)cc(C)c2O1)CCC=C(CO)CO"
  pIC50: 5.71
- compound: "C/C(=C\\CC[C@]1(C)CCc2cc(O)cc(C)c2O1)CC/C=C(\\C)CCCC(C)C(=O)O (stereo partly shown) [Compound 19b]"
  pIC50: 6.21
- compound: "C/C(=C\\CC/C(C)=C/CC[C@]1(C)CCc2c(C)c(O)c(C)c(C)c2O1)CCC=C(CO)CO [Compound 27a, α-amplexichromanol]"
  pIC50: 7.40
- compound: "CCOC(=O)c1cc2c3c(c(C)cc2oc1=O)O[C@](C)(CC/C=C(\\C)CC/C=C(\\C)CCC=C(CO)CO)CC3"
  pIC50: 5.80
- compound: "C/C(=C\\CC/C(C)=C/CC[C@]1(C)CCc2c(CN3CCCC3)c(O)cc(C)c2O1)CCC=C(CO)CO"
  pIC50: 5.72

Problem: Suppose we examine the compound C/C(=C\CC[C@]1(C)CCc2c(C)c(O)cc(C)c2O1)CC/C=C(\C)CCCC(C)C(=O)O (stereo partly shown) [Compound 19a] ; what pIC50 value has been reported?
Solution: 6.09
